src = patent US7803930B2

Tested on: mouse apolipoprotein B mRNA
Assay protocol: Inhibition of mouse apolipoprotein B mRNA levels in primary mouse hepatocytes, real-time PCR
Type: cell-based
Details: Table 3, 150 nM, averages from two experiments
In the oligonucleotide strings, read from the 5' end, every base follows the letter of its sugar. An asterisk marks phosphorothioate; unmarked linkages are phosphodiester. Other units and linkages are bracketed, terminal groups are in braces. A string of capitals states the bases alone. e = 2'-O-(2-methoxyethyl) (MOE); [5mC] = 5-methylcytosine; d = 2'-deoxy (DNA)
Catalogue of % INHIB values
Recorded endpoint: % INHIB (%)

Substance: 147489 (e[5mC]*e[5mC]*eT*eA*eT*dA*d[5mC]*dT*dG*dG*d[5mC]*dT*dT*d[5mC]*dT*eA*eT*eG*eT*eT; antisense) [compound 147489]
Value reported: 5

Substance: 147492 (e[5mC]*eA*eA*eT*eG*dG*dA*dA*dT*dG*d[5mC]*dT*dT*dG*dT*e[5mC]*eA*e[5mC]*eT*eG; antisense) [compound 147492]
Value reported: 68

Substance: 147763 (eT*eG*e[5mC]*eG*eA*d[5mC]*dT*dG*dT*dG*dT*d[5mC]*dT*dG*dA*eT*eT*eT*e[5mC]*e[5mC]; antisense) [compound 147763]
Value reported: 34

Substance: 147762 (eA*eT*eG*e[5mC]*eT*d[5mC]*d[5mC]*dA*dT*dT*d[5mC]*dT*d[5mC]*dA*d[5mC]*eA*eT*eG*e[5mC]*eT; antisense) [compound 147762]
Value reported: 46

Substance: 147767 (e[5mC]*eG*eT*e[5mC]*e[5mC]*dT*dT*dG*dA*dG*d[5mC]*dA*dG*dT*dG*e[5mC]*e[5mC]*e[5mC]*eG*eA; antisense) [compound 147767]
Value reported: 5

Substance: 147487 (eT*eT*e[5mC]*e[5mC]*e[5mC]*dA*dG*dT*d[5mC]*dA*dG*d[5mC]*dT*dT*dT*eA*eG*eT*eG*eG; antisense) [compound 147487]
Value reported: 73

Substance: 147480 (eT*e[5mC]*eT*e[5mC]*eA*d[5mC]*d[5mC]*d[5mC]*dT*d[5mC]*dA*dT*dG*d[5mC]*dT*e[5mC]*e[5mC]*eA*eT*eT; antisense) [compound 147480]
Value reported: 54

Substance: 147775 (antisense e[5mC]*eT*eG*eT*e[5mC]*dA*dT*dG*dA*d[5mC]*dT*dG*d[5mC]*d[5mC]*d[5mC]*eT*eT*eT*eA*e[5mC]) [compound 147775]
Value reported: 52

Substance: 147475 (eA*eT*eT*eG*eT*dA*dT*dG*dT*dG*dA*dG*dA*dG*dG*eT*eG*eA*eG*eG; antisense) [compound 147475]
Value reported: 79

Substance: 147505 (eG*eG*eA*eA*eG*dT*dG*dA*dG*dA*d[5mC]*dT*dT*dT*d[5mC]*eT*eA*eA*eG*e[5mC]; antisense) [compound 147505]
Value reported: 76

Substance: 147484 (eT*eT*e[5mC]*eA*eT*d[5mC]*d[5mC]*dG*dA*dG*dA*dA*dG*dT*dT*eG*eG*eG*eA*e[5mC]; antisense) [compound 147484]
Value reported: 49
